# Target system: Sigma non-opioid intracellular receptor 1 (Cavia porcellus, UniProt Q60492)
# Sequence (Q60492 whole entry): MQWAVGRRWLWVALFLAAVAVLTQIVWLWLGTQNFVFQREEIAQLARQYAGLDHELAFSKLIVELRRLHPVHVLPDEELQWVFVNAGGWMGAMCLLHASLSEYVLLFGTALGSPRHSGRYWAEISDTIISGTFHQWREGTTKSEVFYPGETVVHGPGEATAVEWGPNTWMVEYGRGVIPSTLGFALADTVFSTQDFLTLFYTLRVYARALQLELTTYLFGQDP
# Protocol summary: Displacement of [3H](+)-pentazocine from sigma 1 receptor in guinea pig brain membrane
Provide the recorded pKi for the entries that follow.
Answers are plain numbers, as −log10 of the molar value.

Record excerpt, results attached:
Compound | Target system | pKi
COC1Cc2sccc2C2(CCN(CC=C(C)C)CC2)O1 (stereo not drawn) | Sigma non-opioid intracellular receptor 1 (Cavia porcellus, UniProt Q60492) | 9.00
COC1Cc2sccc2C2(CCN(CCCc3ccccc3)CC2)O1 (stereo not drawn) | Sigma non-opioid intracellular receptor 1 (Cavia porcellus, UniProt Q60492) | 8.62
CCCCCN1CCC2(CC1)OC(OC)Cc1sccc12 (stereo not drawn) | Sigma non-opioid intracellular receptor 1 (Cavia porcellus, UniProt Q60492) | 8.80

For the 3 compounds below, give their pKi values.
1. COC1Cc2sccc2C2(CCN(Cc3ccc(F)cc3)CC2)O1 (stereo not drawn)
2. COC1Cc2sccc2C2(CCN(CCC(C)C)CC2)O1 (stereo not drawn)
3. COC1Cc2sccc2C2(CCN(CCc3ccccc3)CC2)O1 (stereo not drawn)

Solution:
9.21
9.00
8.22

For the 2 compounds below, give their pKi values.
1. COc1ccc(CN2CCC3(CC2)OC(OC)Cc2sccc23)cc1 (stereo not drawn)
2. CCCCCCCCN1CCC2(CC1)OC(OC)Cc1sccc12 (stereo not drawn)

Solution:
[8.66, 8.29]
